Target: Dual specificity protein kinase CLK3 (Homo sapiens) (UniProt P49761)
Sequence (P49761 whole entry, looked up): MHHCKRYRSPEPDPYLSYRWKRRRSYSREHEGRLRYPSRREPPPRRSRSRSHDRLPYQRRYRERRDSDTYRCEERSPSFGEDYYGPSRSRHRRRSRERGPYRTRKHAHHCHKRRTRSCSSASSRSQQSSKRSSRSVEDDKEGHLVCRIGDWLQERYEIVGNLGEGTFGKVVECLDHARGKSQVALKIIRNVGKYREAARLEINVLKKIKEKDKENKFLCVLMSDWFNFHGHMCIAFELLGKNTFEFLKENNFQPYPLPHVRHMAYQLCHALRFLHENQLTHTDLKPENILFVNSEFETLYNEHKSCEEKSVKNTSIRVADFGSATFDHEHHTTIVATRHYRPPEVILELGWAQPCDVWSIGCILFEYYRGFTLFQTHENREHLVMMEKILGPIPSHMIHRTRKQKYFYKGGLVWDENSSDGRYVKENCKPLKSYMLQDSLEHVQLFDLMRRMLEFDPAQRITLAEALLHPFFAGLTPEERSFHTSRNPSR
Details: at 1 µM
So I've got a bunch of molecules here, and I need their inhibition values.
One number for each entry, in %.

Solved cases below.
MOLECULE | inhibition (%)
c1ccc(COc2ccc(Nc3ncnc4ccc(-c5ccco5)cc34)cc2)cc1 | -0.29
CCOc1ccc2c(-c3ccnc(Nc4cccc(C(F)(F)F)c4)n3)cnn2n1 | 6.13
CCn1c(-c2nonc2N)nc2ccccc21 | 2.22
CC1=C(C(=O)Nc2cc(Cl)c3[nH]ncc3c2)C(c2ccc(C(F)(F)F)cc2)CC(=O)N1 (stereo not given) | 1.64
[O-][S+]1CCN(Cc2ccc(-c3ccc4ncnc(Nc5ccc(OCc6cccc(F)c6)c(Cl)c5)c4c3)o2)CC1 | 1.25

Go through the list and state inhibition for each entry.
1. CCn1c(-c2nonc2N)nc2c(C#CC(C)(C)O)nc(OC[C@H](N)c3ccccc3)cc21
2. CNC(=O)c1cncc(/C=C/c2ccccc2Cl)c1
3. Nc1nc(-c2ccc(F)cc2)c(-c2ccc3ncccc3n2)s1
4. COc1cc(/C=N/Nc2ncnc3[nH]ncc23)ccc1O
5. COc1ccc(-c2oc3ncnc(N)c3c2-c2ccc(NC(=O)Nc3cc(C(F)(F)F)ccc3F)cc2)cc1
6. COc1ccc2[nH]c3c4[nH]c5ccc(OC)cc5c4c4c(c3c2c1)C(=O)NC4=O
7. N#Cc1c(NC(=O)c2ccc(F)cc2)sc2c1CCCC2
8. CNC(=O)c1cc(-c2ccc(F)cc2)cc(-c2ccc(S(=O)(=O)N3CCCC3)cc2)c1N

Response:
1: 0.92; 2: 0.64; 3: 6.28; 4: 13.2; 5: 4.8; 6: 4.44; 7: 0.61; 8: 1.45
